Reference for the values: patent US12280088B2

# assay-summary: pH-solubility of polypeptide variants
# Type: physicochemical
# particulars: pH 6.5; b: high viscous solution, aliquot assayed; read-out: pH-solubility, Concentration
Square brackets hold non-standard residues; d marks the D form. Peptide text beside a SMILES is read from it.
result-type: solubility at 3 min

Record CC(C)[C@H](NC(=O)[C@@H](NC(=O)[C@H](Cc1ccccc1)NC(=O)[C@@H](NC(=O)[C@@H](NC(=O)[C@H](Cc1ccccc1)NC(=O)[C@H](CO)NC(=O)[C@H](C)NC(=O)[C@H](CCCCN)NC(=O)CNC(=O)[C@H](CCC(=O)O)NC(=O)[C@@H](C)NC(=O)[C@@H](C)N)[C@@H](C)O)[C@@H](C)O)[C@@H](C)O)C(=O)N[C@H](C(=O)N[C@@H](CCCCN)C(=O)NCC(=O)N[C@@H](CO)C(=O)N[C@H](C)C(=O)N[C@H](C)C(N)=O)[C@@H](C)O [SEQ ID NO.7] (H-[dA][dA]EGKASFTTFTVTKGS[dA][dA]-NH2) . Reported solubility at 3 min: ≥ 30.5 mg/mL
